// data source = patent US7078400B2

This listing pairs compounds with measured Inhibition rate (1 μM).
Test system: 20-HETE synthase originated from rat kidney microsome
assayRemarks: Inhibitory effect of 20-HETE synthase originated from rat kidney microsome
Type: biochemical
experimentalContext: 1 μM of the subject compound; 20-HETE production without compound set to 100%
quantityMeasured: Inhibition rate (1 μM)

O/N=C/Nc1ccc(SCCc2ccccc2)cc1 [Comp. 458]: 116.0
CN(C)CC(C)(C)COc1ccc(N/C=N/O)cc1 [Comp. 403]: 118.3
O/N=C/Nc1ccc(SCc2ccco2)cc1 [Comp. 448]: 109.8
CN(C)CCCCCCOc1ccc(N/C=N/O)cc1 [Comp. 402]: 118.8
CCN(CC)CCOCCOc1ccc(N/C=N/O)cc1 [Comp. 398]: 95.2
CCCCCSc1ccc(N/C=N/O)cc1 [Comp. 450]: 105.9
O/N=C/Nc1ccc(OCCOc2ccccc2)cc1 [Comp. 418]: 120.4
CCN(CC)CCSc1ccc(N/C=N/O)cc1 [Comp. 454]: 105.8
COC(=O)CCSc1ccc(N/C=N/O)cc1 [Comp. 455]: 105.6
CCOC(=O)CCSc1ccc(N/C=N/O)cc1 [Comp. 457]: 112.6
O/N=C/Nc1ccc(OCCSc2ccccc2)cc1 [Comp. 419]: 116.1
